Biological target: Human NKp46 Fc tag (Acro Biosystems, NC1-H5257) (human), O76036
Sequence (O76036 22-255 limits assumed): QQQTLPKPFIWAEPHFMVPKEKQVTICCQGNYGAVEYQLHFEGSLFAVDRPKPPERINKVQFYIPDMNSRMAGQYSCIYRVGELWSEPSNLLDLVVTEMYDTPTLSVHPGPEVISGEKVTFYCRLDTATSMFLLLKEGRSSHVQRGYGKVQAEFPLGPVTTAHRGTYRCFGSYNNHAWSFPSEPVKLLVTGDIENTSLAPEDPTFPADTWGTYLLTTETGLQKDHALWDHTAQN
Assay: SPR Method 1 and/or 2
observable: Kd (nM)

binder	Kd / nM
ACNLQAPCMETGKVCA (modifications not checked) [BCY18316]	1510
ACDLTTHNCAWGICA (modifications not checked) [BCY18269]	1640
ACNLQAPCLHTGKVCA (modifications not checked) [BCY19712]	3140
ACLLHDHCPNTHPKLCA (modifications not checked) [BCY15103]	1660
ACNLQAPCMHTGKVCA (modifications not checked) [BCY19711]	2750

a. CNLQAPCMLTGKVCA (modifications not checked) [BCY19694]
b. ACNLQAPCMLAGKVCA (modifications not checked) [BCY18302]
INPUT: Hi, I'm comparing two records. Which one has the lower Kd, a or b ? # answer = label of selected item
OUTPUT: a
(a: 2510 nM, b: 5380 nM)
